Origin of measurements: paper PMC9398005

target: T1, mouse Rbpj (53-474) WT (mouse, UniProt P31266 53-474); assay: ITC; cofactor (RAM peptide, Hairless or SHARP) in the syringe, Su(H) or Rbpj in the cell; 50 mM sodium phosphate, 150 mM sodium chloride; 20 injections, triplicate, one site model; 25°C by the legend, 20°C by the methods; details: both partners purified
T1 construct: also called WT Rbpj; WT RBPJ; source: E. coli BL21 Tuner, purified (ammonium sulfate, glutathione resin, PreScission cut, SP ion exchange)
T1 sequence (P31266 53-474): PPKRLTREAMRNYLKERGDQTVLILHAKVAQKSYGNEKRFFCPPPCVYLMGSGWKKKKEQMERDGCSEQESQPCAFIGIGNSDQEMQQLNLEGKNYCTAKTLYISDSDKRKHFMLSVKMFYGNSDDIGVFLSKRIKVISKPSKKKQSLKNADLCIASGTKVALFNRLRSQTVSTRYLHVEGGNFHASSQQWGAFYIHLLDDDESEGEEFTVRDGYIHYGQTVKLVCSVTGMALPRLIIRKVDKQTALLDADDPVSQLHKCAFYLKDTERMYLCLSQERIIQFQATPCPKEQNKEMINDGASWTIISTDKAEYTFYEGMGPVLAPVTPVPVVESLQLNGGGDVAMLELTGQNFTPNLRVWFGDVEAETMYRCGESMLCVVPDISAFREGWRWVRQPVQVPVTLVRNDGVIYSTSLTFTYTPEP
measured metric: Kd

VLLSRKRRRQHGQLWFPEGFKVSEASKK (Notch1 RAM domain; the methods give human Notch1 residues 1754-1781, the results and the legend call it the mouse RAM domain; Methods say human Notch1 residues, results say mouse; also called mouse Notch 1 RAM; mouse RAM domain from Notch1; source: synthetic peptide (Peptide2.0, 95% purity)) [Notch1 RAM peptide (human Notch1 residues 1754-1781)] :: ~20 nM

Q: State the recorded Kd for this entry: SHARP residues 2776-2833 (domain or fragment, human, UniProt Q96T58 2776-2833, looked up, called mouse SHARP in the results and the legend; also called mouse SHARP; mouse co-repressor SHARP; source: recombinant from pSMT3, purified as previously described) RASANENSRFHPGSMPVIDDRPADAGSGAGLRVNTSEGVVLLSYSGQKTEGPQRISAK
Ans: ~5 nM
